// values below are reported Tm shift
Molecular target: Serine/threonine-protein kinase pim-2 (Homo sapiens) (UniProt Q9P1W9)
Sequence (Q9P1W9 whole entry, looked up): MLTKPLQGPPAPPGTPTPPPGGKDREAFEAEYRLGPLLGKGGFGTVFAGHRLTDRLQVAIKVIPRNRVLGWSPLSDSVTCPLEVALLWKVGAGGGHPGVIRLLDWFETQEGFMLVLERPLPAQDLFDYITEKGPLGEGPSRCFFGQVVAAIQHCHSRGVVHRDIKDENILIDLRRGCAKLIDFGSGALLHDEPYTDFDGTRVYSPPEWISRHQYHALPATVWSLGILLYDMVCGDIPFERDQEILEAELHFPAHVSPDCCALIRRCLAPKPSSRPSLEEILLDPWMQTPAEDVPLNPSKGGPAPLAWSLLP
Test: PIM2 kinase ligand binding by thermal shift, biophysical, human, melting temperature shift (AID 505)
Details: Recombinant PIM2 thermal shift, Tm change; at 10 µM; buffer 10 mM HEPES; pH 7.5; NaCl 150 mM; with 50 µM L-Arg/L-Glu (1:1); active compounds read high
OBSERVATION_TYPE: Tm shift

molecule=CCN1/C(=C/C(C)=O)Sc2ccc(OC)cc21 target_desc="Serine/threonine-protein kinase pim-2 (Homo sapiens) (UniProt Q9P1W9)" recorded_result="3.1 Celsius"
molecule="Cc1c(O)cc(O)c2c1OC(c1ccc(O)c(O)c1)C(=O)C2=O (stereo unspecified)" target_desc="Serine/threonine-protein kinase pim-2 (Homo sapiens) (UniProt Q9P1W9)" recorded_result="4.1 Celsius"
molecule=CC(C)[C@@H](CO)Nc1ccc2ncc(-c3cccc(OC(F)(F)F)c3)n2n1 target_desc="Serine/threonine-protein kinase pim-2 (Homo sapiens) (UniProt Q9P1W9)" recorded_result="4.06 Celsius"
molecule=O=c1oc2cc(O)ccc2c2oc3cc(O)ccc3c12 target_desc="Serine/threonine-protein kinase pim-2 (Homo sapiens) (UniProt Q9P1W9)" recorded_result="4.4 Celsius"
molecule=O=c1c(-c2ccc(O)cc2)coc2cc(O)ccc12 target_desc="Serine/threonine-protein kinase pim-2 (Homo sapiens) (UniProt Q9P1W9)" recorded_result="3.3 Celsius"
molecule="O=C1C(=O)C(c2ccc(O)cc2O)Oc2cc(O)cc(O)c21 (stereo unspecified)" target_desc="Serine/threonine-protein kinase pim-2 (Homo sapiens) (UniProt Q9P1W9)" recorded_result="6.2 Celsius"
